Tested on: 521955-158-R2-J5-PDC complex spheroid growth;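 further: spheroids mix tumor cells with HUVEC endothelium and human MSC stroma; luminescence taken as viability surrogate after a week of drug exposure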
Assay: Anticancer human tumor 521955-158-R2-J5-PDC patient-derived pancreatic carcinoma cell line growth inhibition [AhR]
Conditions: second compound 10 µM; first compound 0.01 µM; stronger effect = lower value
Below is a list of entries, each paired with its recorded viability, T/C value.
ATTRIBUTE_MEASURED: viability, T/C (%)

COMPOUND	ATTRIBUTE_MEASURED	DISPLAY_UNIT	ASSAY_VALUE
CC[C@@]1(O)C(=O)OCc2c1cc1n(c2=O)Cc2cc3c(CN(C)C)c(O)ccc3nc2-1 + Cc1ccccc1N=Nc1ccc(NC(=O)c2ccnn2C)c(C)c1	viability, T/C	%	107
Nc1ncn(C2CC(O)C(CO)O2)c(=O)n1 (stereo unspecified) + Cc1ccccc1N=Nc1ccc(NC(=O)c2ccnn2C)c(C)c1	viability, T/C	%	147
Cn1ncnc1C1c2n[nH]c(=O)c3cc(F)cc(c23)NC1c1ccc(F)cc1 (stereo unspecified) + Cc1cncc(-c2nc(NCCc3c[nH]c4ccccc34)c3ncn(C(C)C)c3n2)c1	viability, T/C	%	105
CC[C@@]1(O)C(=O)OCc2c1cc1n(c2=O)Cc2cc3c(CN(C)C)c(O)ccc3nc2-1 + CC(CO)NC(=O)c1cc(-c2ccc(Cl)cc2)nn(-c2cnn(C)c2)c1=O	viability, T/C	%	71.6
Cn1ncnc1C1c2n[nH]c(=O)c3cc(F)cc(c23)NC1c1ccc(F)cc1 (stereo unspecified) + Cc1ccccc1N=Nc1ccc(NC(=O)c2ccnn2C)c(C)c1	viability, T/C	%	146
Cn1ncnc1C1c2n[nH]c(=O)c3cc(F)cc(c23)NC1c1ccc(F)cc1 (stereo unspecified) + CC(CO)NC(=O)c1cc(-c2ccc(Cl)cc2)nn(-c2cnn(C)c2)c1=O	viability, T/C	%	82.6
